Where do these numbers come from? They come from patent US20200399318A1.

target: O. volvulus iPGM (Onchocerca volvulus); test: biochemical; details: read-out: O. volvulus iPGM Max Inhibition
Sequence (I6LDA6 whole entry, looked up): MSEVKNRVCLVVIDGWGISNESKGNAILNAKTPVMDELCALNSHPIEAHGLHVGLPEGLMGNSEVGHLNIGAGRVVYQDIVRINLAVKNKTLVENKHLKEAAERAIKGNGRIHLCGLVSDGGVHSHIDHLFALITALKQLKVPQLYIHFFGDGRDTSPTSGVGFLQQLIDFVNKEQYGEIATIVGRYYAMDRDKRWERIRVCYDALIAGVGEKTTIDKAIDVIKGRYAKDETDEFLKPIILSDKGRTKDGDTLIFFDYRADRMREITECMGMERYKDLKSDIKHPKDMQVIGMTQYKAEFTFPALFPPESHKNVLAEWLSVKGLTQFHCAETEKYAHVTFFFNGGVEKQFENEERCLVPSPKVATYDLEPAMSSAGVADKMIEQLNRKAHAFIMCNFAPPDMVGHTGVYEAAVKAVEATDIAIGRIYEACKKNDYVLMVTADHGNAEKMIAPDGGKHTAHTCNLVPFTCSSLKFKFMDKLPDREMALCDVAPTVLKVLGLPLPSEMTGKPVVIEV
Where a SMILES comes first, the peptide text is derived from it. Bridges are numbered along the chain shown (N, C = ends). [ ]: non-standard residue; d: D form.
Entries and their measured Emax follow.
Write down the value, and be sure its unit follows.

Check out these entries, answers already filled in.
Given the entry CC[C@H](C)[C@@H]1NC(=O)[C@H](CCC(=O)O)NC(=O)[C@@H]2CCCN2C(=O)[C@H](C)NC(=O)[C@H](CC(N)=O)NC(=O)[C@@H]2CCCN2C(=O)[C@H](Cc2c[nH]c3ccccc23)NC(=O)[C@H](CO)NC(=O)[C@@H](Cc2ccc(O)cc2)NC(=O)CSC[C@@H](C(=O)N[C@@H](CS)C(=O)NCC(N)=O)NC(=O)[C@H](CCCCN)NC(=O)[C@H](Cc2c[nH]c3ccccc23)NC1=O [Bm-1] ({CH2CO}-[dY]SWPNAPEIWKCCG-NH2; thioether N-12) , report its measured Emax.
82.1%

Given the compound "CC(C)C[C@H](NC(=O)[C@H](Cc1ccc(O)cc1)NC(=O)[C@@H]1CSCC(=O)N[C@H](Cc2ccc(O)cc2)C(=O)N[C@@H](CC(=O)O)C(=O)N[C@@H](Cc2ccc(O)cc2)C(=O)N2CCC[C@H]2C(=O)NCC(=O)N[C@@H](CC(=O)O)C(=O)N[C@@H](Cc2ccc(O)cc2)C(=O)N1)C(=O)N[C@@H](Cc1ccc(O)cc1)C(=O)NCC(=O)N[C@H](C(=O)N[C@@H](CS)C(N)=O)[C@@H](C)O" , what is its reported Emax?
97.7%

Record request: Emax value, item C[C@@H](O)[C@H](NC(=O)[C@H](CO)NC(=O)[C@@H]1CSCC(=O)N[C@H](Cc2ccc(O)cc2)C(=O)N2CCC[C@H]2C(=O)N[C@@H](CCC(=O)O)C(=O)N[C@@H](Cc2c[nH]c3ccccc23)C(=O)N2CCC[C@H]2C(=O)N[C@@H](CC(N)=O)C(=O)N1)C(=O)N[C@@H](CS)C(=O)NCC(N)=O [Bm-6] ({CH2CO}-[dY]PEWPNCSTCG-NH2; thioether N-7)
86%

Continuing:
Give the measured Emax of NC(=O)[C@H](Cc1ccc(O)cc1)NC(=O)[C@@H]1CSCC(=O)N[C@H](Cc2ccc(O)cc2)C(=O)N[C@@H](CC(=O)O)C(=O)N[C@@H](Cc2ccc(O)cc2)C(=O)N2CCC[C@H]2C(=O)NCC(=O)N[C@@H](CC(=O)O)C(=O)N[C@@H](Cc2ccc(O)cc2)C(=O)N1 [Ce-2f] ({CH2CO}-[dY]DYPGDYCY-NH2; thioether N-8) .
-4.3%
